pKi: −log10 of the molar value.
Target or system Tyrosine-protein phosphatase non-receptor type 1 (Homo sapiens, UniProt P18031); metric pKi; compiled from varied reports.
EXPERIMENTAL_ENDPOINT: pKi

COMPOUND: O=C(O)C(=O)N(c1ccccc1Cc1ccccc1)c1ccccc1C(=O)O
VALUE: 4.62
//
COMPOUND: CCC(C)C(NC1=NS(=O)(=O)c2ccccc21)C(=O)NC[C@@H](NC(=O)CC1(NC(=O)[C@H](CC(C)(C)C)n2cc(CC3CCCCC3)nn2)CCCCC1)C(=O)NC(CCCCNC(=O)CCCC[C@@H]1SCC2NC(=O)NC21)C(N)=O (stereo partly drawn)
VALUE: 5.77
//
COMPOUND: COC(=O)NC(Cc1ccc(N(C(=O)C(=O)O)c2ccccc2C(=O)O)c2ccccc12)C(=O)NCc1ccc(S(C)(=O)=O)cc1 (stereo not drawn)
VALUE: 6.20
//
COMPOUND: O=C(O)COc1c(C(=O)O)sc(-c2ccc(NS(=O)(=O)c3ccc(C(F)(F)F)cc3)cc2)c1Br
VALUE: 6.70
//
COMPOUND: COC(=O)c1c(O)cccc1OCCCCNC(=O)C(Cc1ccc(N(CC(Cc2ccccc2)C(=O)O)C(=O)C(=O)O)cc1)NC(=O)OC(C)(C)C (stereo not drawn)
VALUE: 5.30
//
COMPOUND: CCCCCNC(=O)C(Cc1ccc(N(C(=O)C(=O)O)c2ccccc2C(=O)O)c(N2CCCCC2)c1)NC(C)=O (stereo not drawn)
VALUE: 5.70
//
COMPOUND: O=C(O)C(=O)N(c1ccccc1C(=O)O)c1cccc2c1CCCC2
VALUE: 4.13
//
COMPOUND: O=C(O)C(=O)N(c1ccccc1C(=O)O)c1c(O)ccc2ccccc12
VALUE: 5.10

* * *

MEASURED_TARGET: Tyrosine-protein phosphatase non-receptor type 1 (Homo sapiens, UniProt P18031)
Sequence (P18031 whole entry): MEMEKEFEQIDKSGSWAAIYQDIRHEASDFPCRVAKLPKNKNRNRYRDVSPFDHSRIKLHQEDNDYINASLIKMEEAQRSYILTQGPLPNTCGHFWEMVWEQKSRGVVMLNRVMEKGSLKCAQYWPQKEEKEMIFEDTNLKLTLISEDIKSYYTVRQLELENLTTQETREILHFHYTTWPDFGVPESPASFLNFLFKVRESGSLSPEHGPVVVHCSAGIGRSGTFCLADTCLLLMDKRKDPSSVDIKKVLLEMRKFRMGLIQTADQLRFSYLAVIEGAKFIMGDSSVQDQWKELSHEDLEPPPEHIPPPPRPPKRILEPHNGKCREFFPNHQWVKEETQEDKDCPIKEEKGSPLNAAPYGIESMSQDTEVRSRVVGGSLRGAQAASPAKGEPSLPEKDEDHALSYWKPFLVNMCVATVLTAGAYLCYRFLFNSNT
Target or system Tyrosine-protein phosphatase non-receptor type 1 (Homo sapiens, UniProt P18031); metric log10 of Ki; compiled from varied reports.
EXPERIMENTAL_ENDPOINT: log10 of Ki (log10 of the value in µM)

COMPOUND: CCc1cc(CC(NC(C)=O)C(=O)NCCCCC(=O)N[C@H](C(=O)O)C2CCCCC2)ccc1N(C(=O)C(=O)O)c1ccccc1C(=O)O (some centres undefined)
VALUE: -0.60
--
COMPOUND: COc1ccc(C2=NOC(c3ccccn3)C2)c(OC)c1 (centres undefined)
VALUE: 2.23
--
COMPOUND: N[C@@H](Cc1ccc(C(F)(F)P(=O)(O)O)cc1)C(=O)O
VALUE: -2.62
--
COMPOUND: COC(=O)C1C(c2ccc3occc3c2OC)=NOC1c1ccccc1 (centres undefined)
VALUE: 1.86
--
COMPOUND: CCCCCNC(=O)C(Cc1ccc(N2CCCCC2)c(N(C(=O)C(=O)O)c2ccccc2C(=O)O)c1)NC(C)=O (centres undefined)
VALUE: 1.30
--
COMPOUND: O=C(O)COc1ccc2cc(C(=O)O)ccc2c1C(=O)O
VALUE: 2.95
--
COMPOUND: COC(=O)N[C@H](Cc1ccc(N(C(=O)C(=O)O)c2ccccc2C(=O)O)cc1)C(=O)NCCCCOc1cc(-c2ccccc2)cc(O)c1C(=O)OC
VALUE: 0.00
--
COMPOUND: Nc1ccc(-c2sc(C(=O)O)c(OCC(=O)O)c2Br)cc1
VALUE: 0.20
--
COMPOUND: O=P(O)(O)COc1ccc2ccccc2c1
VALUE: 3.11

* * *

Target sequence: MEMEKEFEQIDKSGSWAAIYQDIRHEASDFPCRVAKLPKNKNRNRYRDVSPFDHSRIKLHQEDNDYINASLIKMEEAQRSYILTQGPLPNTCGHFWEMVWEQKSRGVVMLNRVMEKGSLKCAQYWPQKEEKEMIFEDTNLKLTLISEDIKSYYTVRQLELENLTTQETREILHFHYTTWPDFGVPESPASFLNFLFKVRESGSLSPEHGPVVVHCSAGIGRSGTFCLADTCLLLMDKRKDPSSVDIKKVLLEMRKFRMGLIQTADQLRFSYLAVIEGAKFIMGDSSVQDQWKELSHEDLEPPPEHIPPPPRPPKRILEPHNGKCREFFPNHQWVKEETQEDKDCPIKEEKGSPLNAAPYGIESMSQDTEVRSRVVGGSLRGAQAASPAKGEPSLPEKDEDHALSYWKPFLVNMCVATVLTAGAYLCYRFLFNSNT
pKi: −log10 of the molar value.
Target or system the protein given by its sequence; metric pKi; compiled from varied reports.
EXPERIMENTAL_ENDPOINT: pKi

COMPOUND: COC(=O)c1c(O)cccc1OCCCCNC(=O)[C@H](Cc1ccc(N(CC(C)C(=O)O)C(=O)C(=O)O)cc1)NC(=O)OC(C)(C)C (stereo partly drawn)
CENSOR_SYMBOL: =
VALUE: 5.49

COMPOUND: CCc1cc(CC(NC(C)=O)C(=O)NCCCCC(=O)N[C@@H](Cc2ccc([N+](=O)[O-])cc2)C(=O)O)ccc1N(C(=O)C(=O)O)c1ccccc1C(=O)O (stereo partly drawn)
CENSOR_SYMBOL: =
VALUE: 6.40

COMPOUND: CCc1cc(CC(NC(C)=O)C(=O)NCCCCC(=O)N2CCC[C@@H]2C(=O)O)ccc1N(C(=O)C(=O)O)c1ccccc1C(=O)O (stereo partly drawn)
CENSOR_SYMBOL: =
VALUE: 5.70

COMPOUND: O=C(O)C(=O)N(c1ccccc1C(=O)O)c1ccccc1N1CCCCC1
CENSOR_SYMBOL: =
VALUE: 4.80

COMPOUND: CC(C)c1ccccc1N(C(=O)C(=O)O)c1ccccc1C(=O)O
CENSOR_SYMBOL: =
VALUE: 4.46

COMPOUND: COC(=O)c1c(O)cccc1OCCCCNC(=O)[C@H](Cc1ccc(NCC(=O)O)cc1)NC(=O)OC(C)(C)C
CENSOR_SYMBOL: <
VALUE: 3.70

COMPOUND: O=C(O)COc1c(C(=O)O)sc(-c2ccc(NC(=O)c3ccco3)cc2)c1Br
CENSOR_SYMBOL: =
VALUE: 6.21

COMPOUND: CC(=O)NC(Cc1ccc(N(C(=O)C(=O)O)c2ccccc2C(=O)O)c2ccccc12)C(=O)NCCCN1CCCC1=O (stereo not drawn)
CENSOR_SYMBOL: =
VALUE: 5.10

* * *

MEASURED_TARGET: Tyrosine-protein phosphatase non-receptor type 1 (Homo sapiens, UniProt P18031)
Sequence (P18031 whole entry): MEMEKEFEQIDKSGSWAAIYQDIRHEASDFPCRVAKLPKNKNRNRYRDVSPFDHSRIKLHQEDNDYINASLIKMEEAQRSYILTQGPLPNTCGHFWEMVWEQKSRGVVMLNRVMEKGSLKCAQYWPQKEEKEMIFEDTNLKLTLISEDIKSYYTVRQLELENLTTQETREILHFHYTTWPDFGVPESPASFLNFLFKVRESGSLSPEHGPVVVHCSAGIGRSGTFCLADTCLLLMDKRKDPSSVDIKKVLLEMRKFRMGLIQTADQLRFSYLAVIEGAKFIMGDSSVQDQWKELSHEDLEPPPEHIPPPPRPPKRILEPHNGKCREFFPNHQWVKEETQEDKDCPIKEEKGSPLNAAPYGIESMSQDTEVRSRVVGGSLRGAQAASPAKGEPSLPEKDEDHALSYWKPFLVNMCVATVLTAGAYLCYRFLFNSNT
Target or system Tyrosine-protein phosphatase non-receptor type 1 (Homo sapiens, UniProt P18031); metric Ki; compiled from varied reports.

MOLECULE: O=P(O)(O)C(F)(F)c1ccc(CN(Cc2ccc(-c3csnn3)cc2)S(=O)(=O)c2ccccc2)cc1
MEASURED_TARGET: Tyrosine-protein phosphatase non-receptor type 1 (Homo sapiens, UniProt P18031)
Ki: 0.098 µM
--
MOLECULE: CCCCCCNC(=O)Nc1ccc(N(C(=O)C(=O)O)c2ccccc2C(=O)O)c2ccccc12
MEASURED_TARGET: Tyrosine-protein phosphatase non-receptor type 1 (Homo sapiens, UniProt P18031)
Ki: 6.31 µM
--
MOLECULE: CC(C)C(NC1=NS(=O)(=O)c2ccccc21)C(=O)NC[C@@H](NC(=O)CC1(NC(=O)[C@H](CC(C)(C)C)n2cc(CC3CCCCC3)nn2)CCCCC1)C(N)=O (stereo partly specified)
MEASURED_TARGET: Tyrosine-protein phosphatase non-receptor type 1 (Homo sapiens, UniProt P18031)
Ki: 3.5 µM
--
MOLECULE: Nc1ccc(-c2cc(C(=O)O)no2)cc1
MEASURED_TARGET: Tyrosine-protein phosphatase non-receptor type 1 (Homo sapiens, UniProt P18031)
Ki: 3160 µM
--
MOLECULE: CC[C@H](C)[C@H](NC(=O)CCCCNC(=O)[C@@H](Cc1ccc(NC(=O)C(=O)O)c(C(=O)O)c1)NC(C)=O)C(=O)O
MEASURED_TARGET: Tyrosine-protein phosphatase non-receptor type 1 (Homo sapiens, UniProt P18031)
Ki: 20 µM
--
MOLECULE: O=C(O)C(=O)N(c1ccc2ccccc2c1)c1ccccc1C(=O)O
MEASURED_TARGET: Tyrosine-protein phosphatase non-receptor type 1 (Homo sapiens, UniProt P18031)
Ki: 39 µM
--
MOLECULE: CCc1cc(CC(NC(C)=O)C(=O)NCCCCC(=O)N[C@H](CCSC)C(=O)O)ccc1N(C(=O)C(=O)O)c1ccccc1C(=O)O (stereo partly specified)
MEASURED_TARGET: Tyrosine-protein phosphatase non-receptor type 1 (Homo sapiens, UniProt P18031)
Ki: 1.7 µM
--
MOLECULE: CCCCCNC(=O)[C@H](Cc1ccc(OCC(=O)O)c(C(=O)O)c1)NC(=O)[C@H](Cc1ccccc1)NC(=O)CCc1ccccc1
MEASURED_TARGET: Tyrosine-protein phosphatase non-receptor type 1 (Homo sapiens, UniProt P18031)
Ki: 1.4 µM
--
MOLECULE: COc1cccc(N(C(=O)C(=O)O)c2ccccc2C(=O)O)c1
MEASURED_TARGET: Tyrosine-protein phosphatase non-receptor type 1 (Homo sapiens, UniProt P18031)
Ki: 158 µM
--
MOLECULE: CCCC[C@H](NC(=O)CCCCNC(=O)C(Cc1ccc(N(C(=O)C(=O)O)c2ccccc2C(=O)O)c(CC)c1)NC(C)=O)C(=O)O (stereo partly specified)
MEASURED_TARGET: Tyrosine-protein phosphatase non-receptor type 1 (Homo sapiens, UniProt P18031)
Ki: 0.12 µM
--
MOLECULE: O=C(Cn1cc(CN(CC(=O)N(Cc2ccc(C3CCCCC3)cc2)c2ccc(C(=O)O)c(O)c2)S(=O)(=O)c2cccc3cccnc23)nn1)Nc1ccc(C(=O)O)c(O)c1
MEASURED_TARGET: Tyrosine-protein phosphatase non-receptor type 1 (Homo sapiens, UniProt P18031)
Ki: 1.83 µM
--
MOLECULE: CCCCCNC(=O)[C@H](Cc1ccc(N(C(=O)C(=O)O)c2ccccc2C(=O)O)c(/C=C/C(N)=O)c1)NC(=O)[C@H](Cc1ccccc1)NC(=O)CCC(=O)O
MEASURED_TARGET: Tyrosine-protein phosphatase non-receptor type 1 (Homo sapiens, UniProt P18031)
Ki: 0.02 µM
--
MOLECULE: Oc1ccc([C@@H]2Oc3ccc(/C=C/c4cc(O)cc(O)c4O)cc3[C@H]2c2cc(O)cc(O)c2O)cc1
MEASURED_TARGET: Tyrosine-protein phosphatase non-receptor type 1 (Homo sapiens, UniProt P18031)
Ki: 0.92 µM
--
MOLECULE: O=C(O)COc1c(C(=O)O)sc(-c2ccc3cc[nH]c3c2)c1Br
MEASURED_TARGET: Tyrosine-protein phosphatase non-receptor type 1 (Homo sapiens, UniProt P18031)
Ki: 0.57 µM
--
MOLECULE: CCCCC(NC1=NS(=O)(=O)c2ccccc21)C(=O)NCC(NC(=O)CC1(NC(=O)C(C2CC2)n2cc(CC3CCCCC3)nn2)CCCCC1)C(=O)NC(CCCCNC(=O)CCCC[C@@H]1SCC2NC(=O)NC21)C(N)=O (stereo partly specified)
MEASURED_TARGET: Tyrosine-protein phosphatase non-receptor type 1 (Homo sapiens, UniProt P18031)
Ki: 16.8 µM
--
MOLECULE: COC(=O)c1c(O)cccc1OCCCCNC(=O)[C@H](Cc1ccc(OC(CO)C(=O)O)cc1)NC(=O)OC(C)(C)C (stereo partly specified)
MEASURED_TARGET: Tyrosine-protein phosphatase non-receptor type 1 (Homo sapiens, UniProt P18031)
Ki: > 200 µM
